test system: HEK-293T; assay: Multiplex assay against HEK293T; assay type: toxicity, cell-based; conditions: human, 48 h, 10 µM, compound concentration 10 uM, replicate 2
measure: Population Mitotic Cells (%)
One number for each entry, in %.

Field: example entries. Status: answers known.
>  <compound>
Cc1c(Cc2ccc3ccccc3n2)c2cc(F)ccc2n1CC(=O)O

>  <Population Mitotic Cells (%)>
63

$$$$
>  <compound>
CN1CCN2c3ccccc3Cc3ccccc3C2C1.Cl (stereo not given) [MIANSERIN HYDROCHLORIDE]

>  <Population Mitotic Cells (%)>
64

$$$$
>  <compound>
O=C(Nc1cc(-c2ccccc2)nn1-c1ccccc1F)c1ccc([N+](=O)[O-])cc1

>  <Population Mitotic Cells (%)>
79

$$$$
>  <compound>
O=C(NCCNCC(O)COc1ccc(O)cc1)N1CCOCC1.O=C(NCCNCC(O)COc1ccc(O)cc1)N1CCOCC1.O=C(O)/C=C/C(=O)O (stereo not given) [XAMOTEROL FUMARATE]

>  <Population Mitotic Cells (%)>
74

$$$$

Let us examine a further case.
For record CC(C)(O)C(=O)N1CCN(c2ccc(C(F)(F)F)c(C3=C(c4c[nH]c5ccccc45)C(=O)NC3=O)c2)CC1 the listed Population Mitotic Cells (%) is 21

* * *

Hi there, I'd appreciate the recorded Population Normal (%) for every entry that follows.
tested on: U2OS; experiment: Multiplex assay against U2OS; assay type: toxicity, cell-based; conditions: human, 12 h, 10 µM, compound concentration 10 uM, replicate 1

Field: example entries. Status: answers known.
>  <molecule>
Cc1c(Cc2ccc3ccccc3n2)c2cc(F)ccc2n1CC(=O)O

>  <Population Normal (%)>
97%

$$$$
>  <molecule>
C[C@@H]1CC(=O)Nc2cccc(-c3ccc4c(c3)c(-c3cnn(C)c3)nn4C)c2N1

>  <Population Normal (%)>
97%

$$$$
>  <molecule>
Cc1cc(O)c(-c2ccc([C@@H](C)CN(C)C)cc2)c2c1[nH]c(=O)c1sccc12

>  <Population Normal (%)>
95%

$$$$

Hey, can you go through the list below and give me Population Normal (%) for every item?
1. S=C(NCCCc1c[nH]cn1)NCCCN(Cc1ccc(Cl)c(Cl)c1)c1ccc(Br)cn1
2. Cc1nn(C)c2nc(NNC(=O)Nc3cc(Cl)nc(Cl)c3)cc(C(C)C)c12
3. COc1cc2nc(N3CCN(C(=O)c4ccco4)CC3)nc(N)c2cc1OC.Cl [PRAZOSIN HYDROCHLORIDE]
4. COc1ccc2[nH]c(I)c(CCNC(C)=O)c2c1
5. COCCn1c(C)c(C)s/c1=N\C(=O)C1C(C)(C)C1(C)C

Result ::
["93%", "92%", "96%", "96%", "97%"]

Hey, can you go through the list below and give me Population Normal (%) for every item?
1. Cc1cc(NC(=O)NCCN2CCC(O)(Cc3ccccc3)CC2)c2ccccc2n1
2. CCc1nn2c(C)cc(C)nc2c1Cc1ccc(-c2nnc(C3CCNCC3)o2)cc1

Result ::
96%
94%

* * *

system: U2OS; test: Multiplex assay against U2OS; format: toxicity, cell-based; details: human, 48 h, 1 µM, compound concentration 1 uM, replicate 1
Threshold check on Population Apoptotic (%): at or above 90% gives T, strictly below gives F.

# count of solved cases: 4
>  <compound>
CC(C)(C)c1ccc(CSc2cnn(C(C)(C)C)c(=O)c2Cl)cc1

>  <test.system>
U2OS

>  <label.class>
F

$$$$
>  <compound>
Nc1nc(-c2ccco2)c2cnn(Cc3ccccc3F)c2n1

>  <test.system>
U2OS

>  <label.class>
T

$$$$
>  <compound>
CCn1c(-c2nc3cc(C(=O)N4CCCC(N)C4)ccc3n2C)cc2ccccc21.Cl (stereo not drawn)

>  <test.system>
U2OS

>  <label.class>
F

$$$$
>  <compound>
Cc1cc(-c2ccc3c(c2)CC[C@H]3N2CC3(CCN(C(=O)Cc4cn5cc(C)sc5n4)CC3)C2)ncn1

>  <test.system>
U2OS

>  <label.class>
F

$$$$

Query :: Please tell me: is the compound CC(C)(O)C(=O)N1CCN(c2ccc(C(F)(F)F)c(C3=C(c4c[nH]c5ccccc45)C(=O)NC3=O)c2)CC1 at or over 90% in terms of Population Apoptotic (%)?
Result :: T

Query :: Please tell me: is the compound CN1CCC(C(=O)c2cccc(NC(=O)c3c(F)cc(F)cc3F)n2)CC1 at or over 90% in terms of Population Apoptotic (%)?
Result :: T

Query :: Please tell me: is the compound CN(C)C/C=C/C(=O)Nc1ccc(C(=O)N2CCCC(Nc3ncc(Cl)c(-c4c[nH]c5ccccc45)n3)C2)cc1 (stereo not drawn) at or over 90% in terms of Population Apoptotic (%)?
Result :: T

Query :: Please tell me: is the compound CN(C)C(=O)Cn1cc(-c2ccc(-c3nnc4ccccn34)cc2)cn1 at or over 90% in terms of Population Apoptotic (%)?
Result :: F

Query :: Please tell me: is the compound Nc1nc(CC(=O)Nc2ccc(CCNC[C@H](O)c3ccccc3)cc2)cs1 at or over 90% in terms of Population Apoptotic (%)?
Result :: F

Query :: Please tell me: is the compound CCCCCCNC(=O)Nc1ccc(S(=O)(=O)Nc2ccc(CCNC[C@H](O)COc3ccc(O)cc3)cc2)cc1 at or over 90% in terms of Population Apoptotic (%)?
Result :: F

Query :: Please tell me: is the compound CCCCC[C@H](O)/C=C/[C@H]1[C@H](O)CC(=O)[C@@H]1CCCCCCC(=O)O at or over 90% in terms of Population Apoptotic (%)?
Result :: F
